src = ChEMBL document CHEMBL2069277

System: RAW264.7
Assay: Inhibition of zymosan phagocytosis in mouse RAW264.7 cells at 10 uM preincubated before zymosan addition by flow cytometry
Format: functional, cell-based
Calls of active or inactive are those of the source. No cut-off for these calls is given here.
Outcome (select one): Yes for active, No for inactive

Recorded results for 4 compounds are shown here.
| mol | assayed-system | category |
| --- | --- | --- |
| CCCOc1ccc(-c2cccc(C(=O)NCCCN3CCCCC3)c2)cc1 | RAW264.7 | Yes |
| CCCOc1ccc(-c2cccc(C(=O)NCCCN(C)C)c2)cc1 | RAW264.7 | Yes |
| CCCOc1ccc(-c2cccc(C(=O)NCCCN3CCOCC3)c2)cc1 | RAW264.7 | No |
| CCCOc1ccc(-c2cccc(C(=O)NCCN(CC)CC)c2)cc1 | RAW264.7 | No |

Q) Entry CCCOc1ccc(-c2cccc(C(=O)NCCCN3CCCC3)c2)cc1 : call = ?
A) Yes

Q) Entry CCCNC(=O)c1cccc(-c2ccc(OCCC)cc2)c1 : call = ?
A) Yes
